target: sGC α1/β1 heterodimer (Homo sapiens (Human), UniProt Q02108+Q02153); assay: Cell-based sGC functional assay (cyclic GMP assay for sGC activator: CASA assay); conditions: CHO-K1, activity expressed as percentage of compound A (standard); CHO-K1/sGC cells; read-out: % Activation
PARAMETER: Emax (%)
Your answer should be a plain number; it is taken to be in %.

CC(C)(CC(=O)O)c1csc([C@]2(C)C(=O)Nc3nc(-c4nn(CCC(F)(F)C(F)(F)F)c5ncccc45)nc(N)c32)n1 [Example 79B] | 124
CC(C)(Cc1coc(C2(C)C(=O)Nc3nc(-c4nn(Cc5ccc(F)cc5F)c5cc(Cl)ccc45)nc(N)c32)n1)C(=O)O (centres unmarked) [Example 178A] | 124
CC(C)(Cc1csc([C@]2(C)C(=O)Nc3nc(-c4nn(CCCC(F)(F)F)c5ncccc45)nc(N)c32)n1)C(=O)O [Example 87B] | 97
CCCCn1nc(-c2nc(N)c3c(n2)NC(=O)C3(C)c2nc(CC(C)(C)C(=O)O)cs2)c2cccnc21 (centres unmarked) [Example 86A] | 102
C[C@@]1(c2ccc(CCC(=O)O)cc2)C(=O)Nc2nc(-c3nn(CCCC(F)(F)F)c4nc(Cl)ccc34)nc(N)c21 [Example 19B] | 89
CC(C)(NC(=O)CCc1ccc([C@]2(C)C(=O)Nc3nc(-c4nn(Cc5ccccc5F)c5ncccc45)nc(N)c32)cc1)C(=O)O [Example 101B] | 111
CC(C)(CCc1coc(C2(C)C(=O)Nc3nc(-c4nn(Cc5ncccc5F)c5cc(Cl)ccc45)nc(N)c32)n1)C(=O)O (centres unmarked) [Example 207B] | 100
CC(C)(Cc1csc(C2(C)C(=O)Nc3nc(-c4nn(CCC(F)(F)C(F)(F)F)c5ncc(F)cc45)nc(N)c32)n1)C(=O)O (centres unmarked) [Example 84A] | 113

Continue with the next compound.
Fetch value of Emax on sGC α1/β1 heterodimer (Homo sapiens (Human), UniProt Q02108+Q02153) for Cc1nc([C@]2(C)C(=O)Nc3nc(-c4nn(CCC(F)(F)C(F)(F)F)c5ncccc45)nc(N)c32)sc1CC(=O)O [Example 83B] .
80

* * *

Molecular target: human recombinant sGC enzyme (Homo sapiens (Human), UniProt Q02108+Q02153)
Assay: Size Exclusion Chromatography (SEC) competition binding assay using [3H] Ex-77B as the radioligand
Settings: [3H] Ex-77B radioligand, 24 hours at 37° C.
Protocol: Binding Assay: The binding potencies of sGC compounds to the human recombinant sGC enzyme were determined in a Size Exclusion Chromatography (SEC) competition binding assay using [^3H] Ex-77B as the radioligand. [^3H] […] The sealed plates were shaken vigorously and span, and counted after 6 hours with a Wallac Microbeta TriLux 1450 LSC & Luminescence Counter (Perkin Elmer). Data from competition experiments were analyzed to determine Ki values using one site fit Ki equation.
In this section we review reported Ki values for a set of compounds.
# unit: nM | format: bare number

Recorded Ki, per entry:
CC(C)(Cc1csc([C@]2(C)C(=O)Nc3nc(-c4nn(CC5CCCCC5)c5ncccc45)nc(N)c32)n1)C(=O)O (single isomer, unassigned) [Example 151A] | 0.124
CC(C)(Cc1coc(C2(C)C(=O)Nc3nc(-c4nn(Cc5ccc(F)cc5F)c5cc(Cl)ccc45)nc(N)c32)n1)C(=O)O (stereo not drawn) [Example 178A] | 0.116
C[C@@]1(c2ccc(CCC(=O)NS(C)(=O)=O)cc2)C(=O)Nc2nc(-c3nn(Cc4ccccc4F)c4cc(Cl)ccc34)nc(N)c21 [Example 259B] | 0.111
C[C@@]1(c2ccc(CCC(=O)O)cc2)C(=O)Nc2nc(-c3nn(Cc4cccc(F)c4)c4cc(Cl)ccc34)nc(N)c21 [Example 69B] | 0.101
C[C@@]1(c2ccc(CCc3noc(=O)[nH]3)cc2)C(=O)Nc2nc(-c3nn(Cc4ccccc4F)c4cc(Cl)ccc34)nc(N)c21 [Example 256B] | 0.074

--- query ---
Look up and state reported Ki for CC1(c2nc(CCC(F)(F)C(=O)O)co2)C(=O)Nc2nc(-c3nn(Cc4cccc(F)c4)c4cc(F)ccc34)nc(N)c21 (stereo not drawn) [Example 135A]
0.275
